system: MCF7; assay: Cytotoxicity against human MCF7 cells assessed as growth inhibition at 10 uM relative to control; assay type: functional; details: read-out: GI
measured_parameter: inhibition of growth at 10 µM (%)
Write it as a number; the unit % goes unstated.

Reference set (2 entries):
>>> print(df.to_string())
                                item_smiles             measured_parameter  unit_info  assay_value
0  O=C(CSc1nc2ccccc2c(=O)n1Cc1ccccc1)Nc1ccc(S(=O)(=O)Nc2ccc(Cl)nn2)cc1  inhibition of growth at 10 µM          %           13
1  O=c1c2cc3ccccc3cc2[nH]c(=S)n1-c1ccc(S(=O)(=O)Nc2ccc(Cl)nn2)cc1  inhibition of growth at 10 µM          %           11

Task: Which inhibition of growth at 10 µM value belongs to O=C(CSc1nc2ccccc2c(=O)n1-c1ccc(S(=O)(=O)Nc2ccc(Cl)nn2)cc1)NCCc1ccccc1 ?
Output: 24

Task: Moving on to the next compound: O=C(CSc1nc2ccccc2c(=O)n1-c1ccc(S(=O)(=O)Nc2ccc(Cl)nn2)cc1)Nc1ccccc1
Output: 17

Task: Moving on to the next compound: O=C(CSc1nc2ccccc2c(=O)n1-c1ccc(S(=O)(=O)Nc2ccc(Cl)nn2)cc1)NCc1ccccc1
Output: 11

* * *

tested on: UO-31; test: cells; details: Homo sapiens, UO-31, 24 h
measured_parameter: IC50
# do not omit the unit; it follows the number

                                   compound  measured_parameter  assay_value
0  O=C(CSc1nc2ccccc2c(=O)n1-c1ccc(S(=O)(=O)Nc2ccc(Cl)nn2)cc1)NCCc1ccccc1                IC50      3.14 µM
1  CCCCn1c(SCC(=O)Nc2ccc(S(=O)(=O)Nc3ccc(Cl)nn3)cc2)nc2ccccc2c1=O                IC50      14.7 µM

Okay, next one:
Task: Return IC50 measured with UO-31 given this compound: COc1cccc2c1C(=O)c1c(O)c3c(c(O)c1C2=O)C[C@@](O)(C(=O)CO)C[C@@H]3O[C@H]1C[C@H](N)[C@H](O)[C@H](C)O1 [DOXORUBICIN]
Output: 3.61 µM

* * *

system: LOX IMVI; experiment: Cytotoxicity against human LOX IMVI cells assessed as growth inhibition at 10 uM relative to control; type: functional; details: read-out: GI
Entries and their inhibition of growth at 10 µM values follow.
Write it as a number; the unit % goes unstated.

Reference set (4 entries):
>>> print(df.to_string())
                                item_smiles  assay_target             measured_parameter  assay_value
0  O=C(CSc1nc2ccccc2c(=O)n1-c1ccc(S(=O)(=O)Nc2ccc(Cl)nn2)cc1)NCCc1ccccc1      LOX IMVI  inhibition of growth at 10 µM           14
1  O=C(CSc1nc2ccccc2c(=O)n1-c1ccc(S(=O)(=O)Nc2ccc(Cl)nn2)cc1)Nc1ccc(S(=O)(=O)Nc2ccc(Cl)nn2)cc1      LOX IMVI  inhibition of growth at 10 µM           10
2  CNC(=O)CSc1nc2ccccc2c(=O)n1-c1ccc(S(=O)(=O)Nc2ccc(Cl)nn2)cc1      LOX IMVI  inhibition of growth at 10 µM           24
3  O=C(CSc1nc2ccccc2c(=O)n1-c1ccc(S(=O)(=O)Nc2ccc(Cl)nn2)cc1)Nc1ccccc1      LOX IMVI  inhibition of growth at 10 µM           18

Task: Which inhibition of growth at 10 µM value belongs to O=c1c2cc3ccccc3cc2[nH]c(=S)n1-c1ccc(S(=O)(=O)Nc2ccc(Cl)nn2)cc1 ?
Output: 12
